Source listed as PubChem BioAssay.

Target or test system: Torsin-1A (Homo sapiens)
Procedure summary: small-molecule binders of mutant TOR1A in lysate, primary screen, cell lysate, small-molecule microarray, COS7 lysate, 635/667 nm fluorescence (AID 1150);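 further: score pools 667 nm emission and signal to noise measuring lysate protein binding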
Cond: COS7 hTOR1A mutant lysate, 635 nm fluorescence, higher = more signal
Binary call on composite z-score: label 1 from 0.2 upward, label 0 beneath that.

Problem: Check if composite z-score >= 0.2 (inclusive). Item: COC(=O)c1ccc(C#CC(NP(=O)(c2ccccc2)c2ccccc2)c2ccccc2)cc1 (stereo not given)
Result: label 0

Problem: Check the entry `COCCOC(=O)N1C(=O)[C@@]2(c3cc(C#CCCO)ccc31)[C@H](c1ccc(OCCO)cc1)N1[C@H](c3ccccc3)[C@H](c3ccccc3)OC(=O)[C@H]1[C@@H]2C(=O)NC[C@H](O)c1ccccc1` : does composite z-score equal or exceed 0.2?
Result: label 1

Problem: Answer whether composite z-score of `COc1ccc(-c2ccccc2[C@@H]2N[C@H](C(=O)O)CC[C@H]2C)cc1` is greater than or equal to 0.2.
Result: label 1

Problem: Answer whether composite z-score of `C=CCNC(=O)[C@@H]1[C@H]2C(=O)O[C@H](c3ccccc3)[C@H](c3ccccc3)N2[C@H](c2ccc(OCCO)cc2)[C@@]12C(=O)N(C(=O)OCCOC)c1ccc(C#CC3(O)CCCCCC3)cc12` is greater than or equal to 0.2.
Result: label 1

Problem: Given the entry `O=C1c2ccccc2[C@](Cc2ccccc2I)(C(=O)NCc2ccccc2)[C@H](c2ccc(CO)cc2)N1Cc1ccccc1C(F)(F)F` , answer whether its composite z-score meets or surpasses 0.2.
Result: label 0

Problem: Record `CCCC=C(CCC)[C@@H](NS(=O)(=O)c1cccc(C(F)(F)F)c1)c1ccc(C(=O)OC)cc1` ; criterion: composite z-score no lower than 0.2. Met?
Result: label 0

Problem: Determine whether measured composite z-score meets or exceeds 0.2 for C=CCC(OC(C)=O)[C@@H]1[C@@H](N(Cc2cccc3ccccc23)C(=O)Cc2ccc(F)cc2)c2cc(OCCCO)ccc2N1C(=O)Cc1ccc2ccccc2c1 (stereo not given in full)
Result: label 0

Problem: Does the reported composite z-score for COc1ccc(NN2C(C(O)c3cc(OC)c(OC)c(OC)c3)C=CC3C(=O)N(C4CCCCC4)C(=O)C32)cc1 (stereo not given) fall at or above the 0.2 mark?
Result: label 1

Problem: Check if composite z-score >= 0.2 (inclusive). Item: `COc1cccc([C@H]2N[C@H](C(=O)O)CC[C@@H]2C)c1`
Result: label 1

Problem: hey, is composite z-score for this one >= 0.2? `CC(=O)NCCCC[C@@H]1NC(=O)[C@@H]2C[C@H](C(=O)NCc3ccc(F)cc3)[C@H](c3cccc(OCCO)c3)N2C1=O`
Result: label 1

Problem: Assess whether reported composite z-score for `COc1cccc([C@@H]2[C@@H](C)CC[C@H]3C(=O)N(C)[C@@H](C(C)C)C(=O)N23)c1` sits at 0.2 or higher.
Result: label 0

Problem: Is composite z-score for `Cc1ccc(N2C(=O)c3ccccc3[C@@H](C(=O)NCc3ccccc3)[C@@H]2c2ccc(CO)cc2)nc1` at or above 0.2?
Result: label 1

Problem: Check this molecule for composite z-score at or above 0.2: `C[C@@H]1CC[C@H]2C(=O)N3CCC[C@H]3C(=O)N2[C@H]1c1ccc(Br)cc1`
Result: label 1

Problem: Kindly determine if composite z-score recorded for `CCCC[C@H]1OB(O)C[C@H]2C1=C(COC)C[C@H]1C(=O)N(Cc3ccccc3)C(=O)[C@H]12` is above or exactly 0.2.
Result: label 1

Problem: Would you say `COCCOC(=O)N1C(=O)[C@@]2(c3cc(C#CCCO)ccc31)[C@H](c1ccc(O)cc1)N1[C@H](c3ccccc3)[C@H](c3ccccc3)OC(=O)[C@H]1[C@@H]2C(=O)Nc1nc2ccccc2s1` shows composite z-score at minimum 0.2?
Result: label 1

---

Tested on: XIP peptide (Xip251-270) binding
Procedure summary: small-molecule binders of XIP peptide, primary screen, biochemical, small-molecule microarray, fluorescence 635/667 nm, 0.1 µg/mL protein (AID 1182)
Cond: fluorescent protein binding, 635 nm, higher = more signal, called active from +8 up or from −8 down
Label y when composite z-score is at or above -0.1; anything below gets n.

Problem: Exam item: decide whether the reported composite z-score for COC(=O)C1=CC(c2ccc(CO)cc2)=CC(C2CC2)N(Cc2sc3ccccc3c2Cl)C=C1C(=O)OC (stereo not drawn) is at least -0.1.
Result: y

Problem: hey, is composite z-score for this one >= -0.1? CN1CCC(CCCO)=CC1C1CC1 (stereo not drawn)
Result: n

Problem: Please indicate if the recorded composite z-score for `O=C(NCc1ccccc1)[C@@]1(Cc2ccccc2)COC(c2ccc(OCCCO)cc2)=N1` meets or exceeds -0.1.
Result: y

Problem: // inclusive: composite z-score at least -0.1? input: `C=CCNC(=O)[C@H]1[C@@H]2C(=O)O[C@@H](c3ccccc3)[C@@H](c3ccccc3)N2[C@@H](c2ccccc2OCCO)[C@]12C(=O)N(C(=O)OCCOC)c1ccc(C#CCC(C(=O)OC)C(=O)OC)cc12`
Result: y

Problem: Given `CC(C)CNC(=O)[C@@]1(C)c2ccccc2C(=O)N(Cc2ccc(OC(F)(F)F)cc2)[C@H]1c1ccc(CO)cc1` , state whether its composite z-score is at least -0.1.
Result: n

Problem: Quick check, composite z-score >= -0.1? `CO[C@H]1COC(=O)[C@@H](C)COC(=O)[C@H](Cc2ccccc2)NC(=O)CC=C[C@H]1C`
Result: y

Problem: Would you say `Cc1ccc(S(=O)(=O)c2cc3oc2CC[C@@H](CO)NC(=O)N(C)Cc2cn(nn2)C[C@H](Cc2ccccc2)NC3=O)cc1` shows composite z-score at minimum -0.1?
Result: n

Problem: For this compound, is measured composite z-score -0.1 or higher? `CO[C@H]1COC(=O)[C@H](Cc2ccccc2)NC(=O)CC=C[C@@H](C)[C@H](OC)COC(=O)CC=C[C@@H]1C`
Result: n

Problem: Hello, I need to know if `O=C(NCC(F)(F)F)[C@@H]1c2ccccc2C(=O)N(Cc2ccccc2Cl)[C@H]1c1ccc(CO)cc1` has measured composite z-score not below -0.1. Thanks!
Result: y

Problem: Check if composite z-score >= -0.1 (inclusive). Item: `CO[C@@H]1COC(=O)[C@H](C)NC(=O)CC=C[C@@H](C)[C@H](NS(=O)(=O)c2ccc(C)cc2)COC(=O)CC=C[C@@H]1C`
Result: n

Problem: Determine whether this compound has composite z-score no lower than -0.1: `C[C@]1(C(=O)NCCN2CCOCC2)c2ccccc2C(=O)N(Cc2ccccc2)[C@H]1c1ccc(CO)cc1`
Result: y

Problem: Can `COc1ccc([Si](C)(C)[C@H]2[C@H](CC(=O)N3Cc4ccccc4C[C@H]3CO)O[C@@]3(C(=O)N(Cc4cccc(N5CCOC5=O)c4)c4ccccc43)[C@@H]2C)cc1` be said to have composite z-score at or above -0.1?
Result: y

Problem: Kindly determine if composite z-score recorded for `CCCNC(=O)[C@@H]1c2ccccc2C(=O)N(Cc2cc(F)cc(C(F)(F)F)c2)[C@H]1c1ccc(CO)cc1` is above or exactly -0.1.
Result: y

Problem: Threshold query (composite z-score >= -0.1) on `CN(C)C(=O)[C@@]1(Cc2ccccc2N=[N+]=[N-])N=C(c2ccc(OCCCO)cc2)O[C@H]1c1ccccc1CN=[N+]=[N-]`
Result: y

Problem: Reported composite z-score reaches at least -0.1 for `[N-]=[N+]=NCc1ccccc1C[C@@]1(C(=O)O)N=C(c2ccc(OCCCO)cc2)O[C@@H]1c1ccccc1N=[N+]=[N-]` ?
Result: n

Problem: Form field: composite z-score at least -0.1? Entry: `C[C@H]1COC(=O)[C@@H]2CCCN2C(=O)[C@@H](C)COC(=O)[C@@H]2CCCN2C1=O`
Result: y

Problem: // inclusive: composite z-score at least -0.1? input: `C=CCOC(=O)[C@@H]1[C@H]2C(=O)O[C@H](c3ccccc3)[C@H](c3ccccc3)N2[C@H](c2ccc(OCCOC(=O)[C@H]3C[C@H]4C(=O)N5CCC[C@H]5C(=O)N4[C@H]3c3ccc(O)cc3)cc2)[C@@]12C(=O)Nc1ccccc12`
Result: y

Problem: Hi team, for CN1C(=O)C2C=CC(C(O)c3ccc(N(C)C)cc3)N(Nc3ccc([N+](=O)[O-])cc3[N+](=O)[O-])C2C1=O (stereo not drawn) , is the recorded composite z-score at or above -0.1?
Result: y

Problem: Entry CCC1=C2CN(Cc3ccccc3Br)[C@@H]([C@@H](O)Cc3ccccc3)C2C=CCC1 (stereo partly drawn) : is its composite z-score no less than -0.1?
Result: n

Problem: Hello, I need to know if `COc1ccc([Si](C)(C)[C@H]2[C@H](CC(=O)N(CCO)Cc3ccccc3)O[C@@]3(C(=O)N(C)c4ccccc43)[C@@H]2C)cc1` has measured composite z-score not below -0.1. Thanks!
Result: y

Problem: Decide: composite z-score of `CSCC[C@@H]1NC(=O)CC=C[C@@H](C)COC(=O)[C@H](CCSC)NC(=O)CC=C[C@@H](C)COC1=O` >= -0.1?
Result: y

Problem: Is it the case that C=CCC(OC(C)=O)[C@@H]1[C@@H](N(Cc2ccc(-c3ccccc3)cc2)C(=O)c2ccc(-c3ccccc3)cc2)c2cc(OCCCO)ccc2N1C(=O)Cc1ccc(OC)cc1 (stereo partly drawn) has composite z-score reaching or exceeding -0.1?
Result: y

Problem: Please tell me: is the compound `CCc1cccc(NC(=O)O[C@H]2[C@H](OC(=O)Nc3ccccc3)[C@@H](OC(=O)Nc3ccccc3)[C@@H](OC)O[C@@H]2CO)c1` at or over -0.1 in terms of composite z-score?
Result: y

Problem: Does `CCC(=O)[C@]12O[C@@]3([C@@H]4C(=O)OCC[C@@H]41)N(CC)C(C)=C(C(=O)OC)[C@@H](c1ccccc1)N3C2=O` have a reported composite z-score of at least -0.1?
Result: y

Problem: Would you say `COc1cc(Cc2cc3c(c(CCc4ccccc4)n2)[Si](C(C)C)(C(C)C)OC3)cc(OC)c1OC` shows composite z-score at minimum -0.1?
Result: n

Problem: Is reported composite z-score greater than or equal to -0.1 here: `CC(C)NC(=O)[C@@]1(Cc2ccccc2I)c2ccccc2C(=O)N(C2CCCCC2)[C@H]1c1ccc(CO)cc1`
Result: y

Problem: Hi, just wondering whether `COc1cc2c(cc1OC)CN(C(=O)[C@H]1[C@@H]3C(=O)O[C@@H](c4ccccc4)[C@@H](c4ccccc4)N3[C@@H](c3ccccc3OCCO)[C@]13C(=O)Nc1ccc(C#CC4(O)CCCCCC4)cc13)CC2` shows composite z-score of -0.1 or higher.
Result: y

Problem: Hello, I need to know if Cc1ccccc1C(O)C1C=CC2C(=O)N(c3ccccc3)C(=O)C2N1Nc1ccc(C#N)cc1 (stereo not drawn) has measured composite z-score not below -0.1. Thanks!
Result: y
